δ(ΔG^0) relative to Inosine overview
Target: Tg244440 (Toxoplasma gondii, UniProt A0A125YNC9)
Sequence (A0A125YNC9 1-462): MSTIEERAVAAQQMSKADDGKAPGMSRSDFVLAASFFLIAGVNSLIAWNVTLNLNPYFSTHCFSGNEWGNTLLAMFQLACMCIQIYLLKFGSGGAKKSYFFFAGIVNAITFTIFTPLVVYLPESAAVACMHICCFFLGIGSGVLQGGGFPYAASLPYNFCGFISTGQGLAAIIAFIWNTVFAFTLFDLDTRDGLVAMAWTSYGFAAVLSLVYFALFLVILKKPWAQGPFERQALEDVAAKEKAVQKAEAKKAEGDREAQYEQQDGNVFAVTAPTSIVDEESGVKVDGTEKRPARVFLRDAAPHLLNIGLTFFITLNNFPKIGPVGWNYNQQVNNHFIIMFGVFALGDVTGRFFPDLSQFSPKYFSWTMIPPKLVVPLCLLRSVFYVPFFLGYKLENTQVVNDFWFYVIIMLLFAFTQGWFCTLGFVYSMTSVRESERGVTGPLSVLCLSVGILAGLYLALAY
Experiment: [3H]-guanine uptake and its inhibition in T. brucei TbNB-KO procyclics expressing Tg244440 (clone F5)
Type: cell-based
Conditions: relative to Inosine

Smi | δ(ΔG^0) relative to Inosine / kcal/mol
OC[C@H]1O[C@@H](n2cnc3c(O)ccnc32)[C@H](O)[C@@H]1O | 2.89
C[C@H]1O[C@@H](n2cnc3c(O)ncnc32)[C@H](O)[C@@H]1O | 1.29
OC[C@@H]1CC[C@H](n2cnc3c(O)ncnc32)O1 | 3.06
OC[C@H]1O[C@@H](n2ccc3c(O)ncnc32)[C@H](O)[C@@H]1O | 0.263

---

biological target: Tg244440 (Toxoplasma gondii); experiment: [3H]-guanine uptake and its inhibition in T. brucei TbNB-KO procyclics expressing Tg244440 (clone F5); assay type: cell-based; conditions: Ki, competition with 50 nM [3H]-guanine, 30 s; Cheng-Prusoff
log10 of Ki overview
Attribute Measured: log10 of Ki (log10 of the value in µM)

Molecule | Attribute Measured | Observed
OC[C@H]1O[C@@H](n2ccc3c(O)ncnc32)[C@H](O)[C@@H]1O [7-deazainosine] | log10 of Ki | 0.80
Sc1ncnc2nc[nH]c12 [6-Mercaptopurine] | log10 of Ki | 0.56
Nc1ncnc2c1ccn2[C@@H]1O[C@H](CO)C[C@H]1O [3′-deoxy,7-deazaadenosine] | log10 of Ki | 2.90
OC[C@H]1O[C@@H](n2cc(Cl)c3c(O)ncnc32)[C@H](O)[C@@H]1O [7-deaza-7-Chloroinosine] | log10 of Ki | 0.95
OC[C@H]1O[C@@H](n2ccc3c(O)ncnc32)C[C@@H]1O [7-deaza-2′-deoxyinosine] | log10 of Ki | 1.72
O=[N+]([O-])c1ccc(CSc2ncnc3c2ncn3[C@@H]2O[C@H](CO)[C@@H](O)[C@H]2O)cc1 [S-(4-nitrobenzyl)-6-thioinosine (NBMPR), S-(4-nitrobenzyl)-6-thioinosine] | log10 of Ki | 1.89
Nc1nc2cc[nH]c2c(=O)[nH]1 [9-deazaguanine] | log10 of Ki | 0.98
O=C1CC=Nc2nc[nH]c21 [1-deazahypoxanthine] | log10 of Ki | 2.29
O=c1[nH]ccc2nc[nH]c12 [3-deazahypoxanthine] | log10 of Ki | 1.77
C[C@H]1O[C@@H](n2cnc3c(O)ncnc32)[C@H](O)[C@@H]1O [5′-deoxyinosine] | log10 of Ki | 1.55
O=c1[nH]cnc2cc[nH]c12 [9-deazahypoxanthine] | log10 of Ki | 0.96
OC[C@@H]1CC[C@H](n2cnc3c(O)ncnc32)O1 [2′,3′-dideoxyinosine] | log10 of Ki | 2.84
Nc1nccc2c1ncn2[C@@H]1O[C@H](CO)[C@@H](O)[C@H]1O [3-deazaadenosine] | log10 of Ki | 3.09
OC[C@H]1O[C@@H](n2cnc3c(O)ncnc32)C[C@@H]1O [2′-deoxyinosine] | log10 of Ki | 2.07
Nc1nc2c(c(=O)[nH]1)CC=N2 [7-deazaguanine] | log10 of Ki | 1.69
Nc1nc(N)c2[nH]cnc2n1 [2,6-diaminopurine] | log10 of Ki | 2.32
Nc1nc2c(ncn2[C@H]2C[C@H](O)[C@@H](CO)O2)c(=O)[nH]1 [2′-deoxyguanosine] | log10 of Ki | 2.45
O=c1[nH]cnc2c1CC=N2 [7-deazahypoxanthine] | log10 of Ki | 2.50

---

ΔG^0 (Gibbs free energy of interaction) overview
target: Tg244440 (Toxoplasma gondii, UniProt A0A125YNC9); assay: [3H]-guanine uptake and its inhibition in T. brucei TbNB-KO procyclics expressing Tg244440 (clone F5); format: cell-based; details: calculated from Km or Ki, ΔG0 = −RTln(Ki)

Compound | ΔG^0 (Gibbs free energy of interaction), kcal/mol
Nc1nc2nc[nH]c2c(=O)[nH]1 [Guanine] | -8.05
O=c1[nH]cnc2c1ncn2[C@@H]1O[C@H](CO)[C@@H](O)[C@H]1O [Inosine] | -7.36
Nc1ncnc2[nH]cnc12 [Adenine] | -4.59
Nc1ncnc2n[nH]cc12 [Aminopurinol] | -4.97
Nc1nc2c(ncn2[C@@H]2O[C@H](CO)C[C@H]2O)c(=O)[nH]1 [3′-deoxyguanosine] | -5.07
O=c1[nH]cnc2[nH]nc(Br)c12 [7-Br-allopurinol] | -5.71
Cn1c(=O)[nH]c(=O)c2[nH]cnc21 [3-methylxanthine] | -6.6
Nc1ncnc2c1ncn2[C@@H]1O[C@H](CO)[C@@H](O)[C@@H]1O [Adenine arabinoside (Ara-A), Adenine arabinoside] | -4.78
O=c1[nH]c(=O)c2[nH]ccc2[nH]1 [9-deazaxanthine] | -5.88
OC[C@H]1O[C@@H](n2cc(Br)c3c(O)ncnc32)[C@H](O)[C@@H]1O [7-deaza-7-Bromoinosine] | -6.98
COc1ncnc2c1c(Cl)cn2[C@@H]1O[C@H](CO)[C@@H](O)[C@H]1O [6-O-methyl,7-deaza,7-Cl-inosine] | -6
O=c1[nH]cnc2cc[nH]c12 [9-deazahypoxanthine] | -6.88

---

Biological target: Tg244440 (Toxoplasma gondii, UniProt A0A125YNC9)
Sequence (A0A125YNC9 1-462): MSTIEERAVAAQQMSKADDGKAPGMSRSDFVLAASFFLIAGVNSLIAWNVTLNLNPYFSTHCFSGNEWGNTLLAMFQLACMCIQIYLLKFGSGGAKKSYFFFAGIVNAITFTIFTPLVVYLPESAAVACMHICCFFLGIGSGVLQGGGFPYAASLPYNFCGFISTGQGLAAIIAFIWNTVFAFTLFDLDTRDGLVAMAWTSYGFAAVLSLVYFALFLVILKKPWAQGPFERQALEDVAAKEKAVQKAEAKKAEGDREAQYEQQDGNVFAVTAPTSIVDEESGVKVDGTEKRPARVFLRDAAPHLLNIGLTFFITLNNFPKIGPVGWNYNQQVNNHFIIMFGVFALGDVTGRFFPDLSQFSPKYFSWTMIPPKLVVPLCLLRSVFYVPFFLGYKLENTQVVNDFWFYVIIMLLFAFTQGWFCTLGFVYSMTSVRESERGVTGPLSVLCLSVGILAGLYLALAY
Experiment: [3H]-guanine uptake and its inhibition in T. brucei TbNB-KO procyclics expressing Tg244440 (clone F5)
Type: cell-based
Settings: calculated from Km or Ki, ΔG0 = −RTln(Ki)
Description: Briefly, PCF cells of T. brucei in logarithmic growth were harvested by centrifugation at 1000× g for 10 min, washed twice in AB and then resuspended in fresh buffer at a final density of 10^8 cells/mL. […] The next morning, the vials were vigorously shaken to ensure optimal mixing and the scintillation was measured in a 300SL (Hidex) scintillation counter. […]
Attribute Measured: ΔG^0 (Gibbs free energy of interaction) (kJ/mol)

Smi | Attribute Measured | Observed
O=[N+]([O-])c1ccc(CSc2ncnc3c2ncn3[C@@H]2O[C@H](CO)[C@@H](O)[C@H]2O)cc1 | ΔG^0 (Gibbs free energy of interaction) | -23.4
Nc1nc2cc[nH]c2c(=O)[nH]1 | ΔG^0 (Gibbs free energy of interaction) | -28.6
Nc1nc2c(ncn2[C@H]2C[C@H](O)[C@@H](CO)O2)c(=O)[nH]1 | ΔG^0 (Gibbs free energy of interaction) | -20.3
OC[C@H]1O[C@@H](n2ccc3c(O)ncnc32)[C@H](O)[C@@H]1O | ΔG^0 (Gibbs free energy of interaction) | -29.7

---

Ki overview
target: Tg244440 (Toxoplasma gondii); test: [3H]-guanine uptake and its inhibition in T. brucei TbNB-KO procyclics expressing Tg244440 (clone F5); format: cell-based; settings: Ki, competition with 50 nM [3H]-guanine, 30 s; Cheng-Prusoff

Compound | Units Label | Ki
OC[C@@H]1C[C@@H](O)[C@H](n2ccc3c(O)ncnc32)O1 [7-deaza-3′-deoxyinosine] | µM | 70.8
Nc1ccnc2c1ncn2[C@@H]1O[C@H](CO)[C@@H](O)[C@H]1O [1-deazaadenosine] | µM | 191
Nc1nc2nc[nH]c2c(=S)[nH]1 [6-Thioguanine] | µM | 1.64
O=c1[nH]c(=O)c2nc[nH]c2[nH]1 [Xanthine] | µM | 42.4
Nc1nc2c(ncn2[C@@H]2O[C@H](CO)[C@@H](O)[C@H]2O)c(=O)[nH]1 [Guanosine] | µM | 3.3
C[C@H]1O[C@@H](n2cnc3c(N)ncnc32)[C@H](O)[C@@H]1O [5′-deoxyadenosine] | µM | 85.2
OC[C@H]1O[C@@H](n2cnc3c(S)ncnc32)[C@H](O)[C@@H]1O [6-thioinosine] | µM | 7.3
OC[C@H]1O[C@@H](n2cnc3cncnc32)[C@H](O)[C@@H]1O [Nebularine, 9-(β-D-ribofuranosyl)purine] | µM | 491
Nc1ncnc2c1ncn2[C@@H]1O[C@H](CO)C[C@H]1O [3′-deoxyadenosine] | µM | 71.9
Cn1c(=O)[nH]c(=O)c2[nH]cnc21 [3-methylxanthine] | µM | 14.6
Nc1ncnc2c1ncn2[C@H]1C[C@H](O)[C@@H](CO)O1 [2′-deoxyadenosine] | µM | 83.9
Nc1nc2c(ncn2[C@@H]2O[C@H](CO)C[C@H]2O)c(=O)[nH]1 [3′-deoxyguanosine] | µM | 196
OC[C@H]1O[C@@H](n2cc(Br)c3c(O)ncnc32)[C@H](O)[C@@H]1O [7-deaza-7-Bromoinosine] | µM | 7.8
O=c1[nH]cnc2nc[nH]c12 [Hypoxanthine] | µM | 2.26
Oc1ncnc2[nH]ncc12 [Allopurinol] | µM | 185
OC[C@H]1O[C@@H](n2cnc3c(O)ccnc32)[C@H](O)[C@@H]1O [1-deazainosine] | µM | 524
Clc1ncnc2nc[nH]c12 [6-Chloropurine] | µM | 109
OC[C@@H]1C[C@@H](O)[C@H](n2cnc3c(O)ncnc32)O1 [3′-deoxyinosine] | µM | 102
